- Test system: Pseudomonas aeruginosa ATCC 27853
- measurement-description: MIC by standard broth microdilution (CLSI), Pseudomonas aeruginosa
- Type: cell-based
- reported-conditions: ATCC27853, PA ATCC 27853, cation-adjusted Mueller Hinton broth (CAMHB), read-out: MIC in CAMHB medium
- Description: The in vitro activity against bacteria was determined by standard broth microdilution according to the Clinical and Laboratory Standards Institute CLSI document (Performance Standards for Antimicrobial Susceptibility Testing) M100Ed29E (2019) and (Methods for Dilution Antimicrobial Susceptibility Test for Bacteria That Grow Aerobically) M07Ed11 (2018). […]
measured-property: MIC (µg/mL)
Field: numeric (µg/mL). Do not append units.

Sample CC(C)(O/N=C(\C(=O)N[C@@H]1C(=O)N2C(C(=O)O)=C(C=NOCc3cc(=O)c(O)cn3O)CS[C@H]12)c1csc(N)n1)C(=O)O — what was its MIC?
1

For CC(C)(O/N=C(\C(=O)N[C@@H]1C(=O)N2C(C(=O)O)=C(C=NOCc3cc(=O)c(O)cn3O)CS[C@H]12)c1nsc(N)n1)C(=O)O , what is its reported MIC?
0.5

Param item = Nc1nc(/C(=N/OCF)C(=O)N[C@@H]2C(=O)N3C(C(=O)O)=C(C=NOCc4cc(=O)c(O)cn4O)CS[C@H]23)ns1 ; retrieve measured MIC.
4

###

- System: Acinetobacter baumannii ATCC 15473
- measurement-description: MIC by standard broth microdilution (CLSI), Acinetobacter baumannii
- Type: cell-based
- reported-conditions: ATCC15473, AB ATCC 15473, cation-adjusted Mueller Hinton broth (CAMHB), read-out: MIC in CAMHB medium
- Description: The in vitro activity against bacteria was determined by standard broth microdilution according to the Clinical and Laboratory Standards Institute CLSI document (Performance Standards for Antimicrobial Susceptibility Testing) M100Ed29E (2019) and (Methods for Dilution Antimicrobial Susceptibility Test for Bacteria That Grow Aerobically) M07Ed11 (2018). […]
measured-property: MIC (µg/mL)
Give a bare numeral; the unit µg/mL is implied.

Looking for the measured MIC of Nc1nc(/C(=N/OCF)C(=O)N[C@@H]2C(=O)N3C(C(=O)O)=C(C=NOCc4cc(=O)c(O)cn4O)CS[C@H]23)ns1 [Example 3] , can you help?
8

Can you look up the measured MIC of CC(C)(O/N=C(\C(=O)N[C@@H]1C(=O)N2C(C(=O)[O-])=C(C[N+]3(CCNC(=O)c4ccc(O)c(O)c4Cl)CCCC3)CS[C@H]12)c1csc(N)n1)C(=O)O [Cefiderocol, cefiderocol, reference compound] for me?
0.25

Find the recorded MIC belonging to CC(C)(O/N=C(\C(=O)NC1C(=O)N2C(C(=O)O)=C(C=NOCCNC(=O)c3ccc(O)c(O)c3Cl)CSC12)c1nsc(N)n1)C(=O)O (stereo not drawn) [Example 5] and report it.
1

###

- System: Klebsiella pneumoniae ATCC 43816
- measurement-description: MIC by standard broth microdilution (CLSI), Klebsiella pneumoniae
- Assay type: cell-based
- reported-conditions: ATCC43816, KP ATCC 43816, cation-adjusted Mueller Hinton broth (CAMHB), read-out: MIC in CAMHB medium
measured-property: MIC

Give the reported MIC for Cn1c(N)c(NC(=O)NCCN)c[n+]1CC1=C(C(=O)O)N2C(=O)[C@@H](NC(=O)/C(=N\OC(C)(C)C(=O)[O-])c3nsc(N)n3)[C@H]2SC1 [Ceftolozane, reference compound] (system: Klebsiella pneumoniae ATCC 43816).
0.25 µg/mL

I'm curious: which MIC was measured for CC(C)(O/N=C(\C(=O)NC1C(=O)N2C(C(=O)O)=C(C=NOCCNC(=O)c3ccc(O)c(O)c3Cl)CSC12)c1csc(N)n1)C(=O)O (stereo not drawn) tested on Klebsiella pneumoniae ATCC 43816?
0.06 µg/mL

Query for Klebsiella pneumoniae ATCC 43816: what MIC does the record show for Nc1nc(/C(=N/OCF)C(=O)NC2C(=O)N3C(C(=O)O)=C(C=NOCCNC(=O)c4ccc(O)c(O)c4Cl)CSC23)ns1 (stereo not drawn) ?
≤ 0.03 µg/mL

Query the reported MIC for Klebsiella pneumoniae ATCC 43816; item: CC(C)(O/N=C(\C(=O)NC1C(=O)N2C(C(=O)O)=C(C=NO[C@H]3CCN(C(=O)c4ccc(O)c(O)c4Cl)C3)CSC12)c1csc(N)n1)C(=O)O (stereo partly drawn)
< 0.03 µg/mL

API: value(readout= MIC, system= Klebsiella pneumoniae ATCC 43816, query= CC(C)(O/N=C(\C(=O)NC1C(=O)N2C(C(=O)O)=C(C=NOCCNC(=O)c3ccc(O)c(O)c3Cl)CSC12)c1nsc(N)n1)C(=O)O (stereo not drawn) )
0.5 µg/mL

So what MIC did CC(C)(O/N=C(\C(=O)N[C@@H]1C(=O)N2C(C(=O)O)=C(C=NOCc3cc(=O)c(O)cn3O)CS[C@H]12)c1nsc(N)n1)C(=O)O get with Klebsiella pneumoniae ATCC 43816?
0.06 µg/mL

Reference for the values: patent US12371441B2
